Provenance of the data: ChEMBL document CHEMBL3885861

Organism: Rattus norvegicus
Test: Open TG-GATES - Regimen: Single
Assay type: toxicity, organism-based, Sprague-Dawley
Parameters: regimen Single, gender Male, age 6 weeks
Settings: in vivo, po, 10 mg/kg, 9 h, tissue Blood, route gavage, dose level Low
# Eos listing for each entry below
Give the value in % but do not write % after it.

Before answering, review these 4 worked examples.
CC(C)OC(=O)C(C)(C)Oc1ccc(C(=O)c2ccc(Cl)cc2)cc1 [FENOFIBRATE]
1
CN(C)CCN(Cc1cccs1)c1ccccn1
0.4
CN(C)CCCN1c2ccccc2CCc2ccccc21
1
CC1=C(/C=C/C(C)=C/C=C/C(C)=C/CO)C(C)(C)CCC1
0.6

With those in mind, consider the next compound.
Record summary for CN(C)CCCN1c2ccccc2CCc2ccc(Cl)cc21 : reported Eos = 0.6

###

Species on record: Rattus norvegicus
Experiment: Open TG-GATES - Regimen: Single
Type: toxicity, organism-based, Sprague-Dawley
Parameters: regimen Single, gender Male, age 6 weeks
Conditions: in vivo, po, 100 mg/kg, 9 h, tissue Plasma, route gavage, dose level High
property-measured: TBIL

Before answering, review these 3 worked examples.
CN(C)CCN(Cc1cccs1)c1ccccn1
0.022 mg/dL
CC1=C(/C=C/C(C)=C/C=C/C(C)=C/CO)C(C)(C)CCC1
0.016 mg/dL
CN(C)CCCN1c2ccccc2CCc2ccccc21
0.056 mg/dL

With those in mind, consider the next molecule.
Record summary for CN(C)CCCN1c2ccccc2CCc2ccc(Cl)cc21 : reported TBIL = 0.064 mg/dL

###

Species on record: Rattus norvegicus
Test: Open TG-GATES - Regimen: Daily Repeat
Format: toxicity, organism-based, Sprague-Dawley
Design: regimen Daily Repeat, gender Male, age 6 weeks
Conditions: in vivo, po, 0 mg/kg, […], tissue Kidney, route gavage, dose level Control, time 7 day
# KIDNEY_TOTAL listing for each entry below

Before answering, review these 4 worked examples.
CN1C(=O)CN=C(c2ccccc2)c2cc(Cl)ccc21
2.5 g
CC1=C(/C=C/C(C)=C/C=C/C(C)=C/CO)C(C)(C)CCC1
2.2 g
CCOc1ccc(NC(=O)CC(C)O)cc1 (stereo not given)
2.3 g
CN(C)CCCN1c2ccccc2CCc2ccccc21
2.2 g

Record summary for COC1=CC(=O)C[C@@H](C)[C@]12Oc1c(Cl)c(OC)cc(OC)c1C2=O : reported KIDNEY_TOTAL = 2.3 g

###

# ALP listing for each entry below
Species on record: Rattus norvegicus
Assay: Open TG-GATES - Regimen: Daily Repeat
Format: toxicity, organism-based, Sprague-Dawley
Set-up: regimen Daily Repeat, gender Male, age 6 weeks
Settings: in vivo, po, 1000 mg/kg, […], tissue Plasma, route gavage, dose level High, time 7 day
Give the value in IU/L but do not write IU/L after it.

Before answering, review these 4 worked examples.
NC(N)=Nc1nc(CSCCC(N)=NS(N)(=O)=O)cs1
987.2
CCOc1ccc(NC(=O)CC(C)O)cc1 (stereo not given)
1387.6
CCOC(=O)CCC(=O)O[C@H]1[C@H](O[C@@H]2[C@@H](C)[C@H](O[C@H]3C[C@@](C)(OC)[C@@H](O)[C@H](C)O3)[C@@H](C)C(=O)O[C@H](CC)[C@@](C)(O)[C@H](O)[C@@H](C)C(=O)[C@H](C)C[C@@]2(C)O)O[C@H](C)C[C@@H]1N(C)C [ERYTHROMYCIN ETHYLSUCCINATE]
1998.2
COC1=CC(=O)C[C@@H](C)[C@]12Oc1c(Cl)c(OC)cc(OC)c1C2=O
845.8

With those in mind, consider the next compound.
Record summary for COc1ccc2[nH]c([S+]([O-])Cc3ncc(C)c(OC)c3C)nc2c1 (stereo not given) : reported ALP = 661.8

###

Species on record: Rattus norvegicus
Assay: Open TG-GATES - Regimen: Daily Repeat
Type: toxicity, organism-based, Sprague-Dawley
Design: regimen Daily Repeat, gender Male, age 6 weeks
Conditions: in vivo, po, 100 mg/kg, 72 h, tissue Kidney, route gavage, dose level Low, time 3 day
# KIDNEY_L listing for each entry below
Give the value in g but do not write g after it.

Before answering, review these 4 worked examples.
CCOC(=O)CCC(=O)O[C@H]1[C@H](O[C@@H]2[C@@H](C)[C@H](O[C@H]3C[C@@](C)(OC)[C@@H](O)[C@H](C)O3)[C@@H](C)C(=O)O[C@H](CC)[C@@](C)(O)[C@H](O)[C@@H](C)C(=O)[C@H](C)C[C@@]2(C)O)O[C@H](C)C[C@@H]1N(C)C [ERYTHROMYCIN ETHYLSUCCINATE]
1
NC(N)=Nc1nc(CSCCC(N)=NS(N)(=O)=O)cs1
1
CCOc1ccc(NC(=O)CC(C)O)cc1 (stereo not given)
1
COC1=CC(=O)C[C@@H](C)[C@]12Oc1c(Cl)c(OC)cc(OC)c1C2=O
1

With those in mind, consider the next molecule.
Record summary for COc1ccc2[nH]c([S+]([O-])Cc3ncc(C)c(OC)c3C)nc2c1 (stereo not given) : reported KIDNEY_L = 1.1

###

# MCV listing for each entry below
Species on record: Rattus norvegicus
Test: Open TG-GATES - Regimen: Daily Repeat
Format: toxicity, organism-based, Sprague-Dawley
Set-up: regimen Daily Repeat, gender Male, age 6 weeks
Conditions: in vivo, po, 0 mg/kg, 72 h, tissue Blood, route gavage, dose level Control, time 3 day
Give the value in fL but do not write fL after it.

Record summary for COC1=CC(=O)C[C@@H](C)[C@]12Oc1c(Cl)c(OC)cc(OC)c1C2=O [GRISEOFULVIN] : reported MCV = 63.5

Record summary for COc1ccc2[nH]c([S+]([O-])Cc3ncc(C)c(OC)c3C)nc2c1 (stereo not given) [OMEPRAZOLE] : reported MCV = 61.6

Record summary for NNC(=O)c1ccncc1 [ISONIAZID] : reported MCV = 65.2

Record summary for NC(N)=Nc1nc(CSCCC(N)=NS(N)(=O)=O)cs1 [FAMOTIDINE] : reported MCV = 61.9

Record summary for CN(C)CCN(Cc1cccs1)c1ccccn1 : reported MCV = 63.8

###

Species on record: Rattus norvegicus
Experiment: Open TG-GATES - Regimen: Single
Format: toxicity, organism-based, Sprague-Dawley
Design: regimen Single, gender Male, age 6 weeks
Details: in vivo, po, 0 mg/kg, 24 h, tissue Liver, route gavage, dose level Control
Is LIVER at least 10 g? Then Met. If not, Not met.

CCOC(=O)CCC(=O)O[C@H]1[C@H](O[C@@H]2[C@@H](C)[C@H](O[C@H]3C[C@@](C)(OC)[C@@H](O)[C@H](C)O3)[C@@H](C)C(=O)O[C@H](CC)[C@@](C)(O)[C@H](O)[C@@H](C)C(=O)[C@H](C)C[C@@]2(C)O)O[C@H](C)C[C@@H]1N(C)C [ERYTHROMYCIN ETHYLSUCCINATE]
Met
CC/C(=C(\c1ccccc1)c1ccc(OCCN(C)C)cc1)c1ccccc1 [TAMOXIFEN]
Not met
NC(N)=Nc1nc(CSCCC(N)=NS(N)(=O)=O)cs1 [FAMOTIDINE]
Met
CCOc1ccc(NC(=O)CC(C)O)cc1 (configuration not stated) [BUCETIN]
Met
COC1=CC(=O)C[C@@H](C)[C@]12Oc1c(Cl)c(OC)cc(OC)c1C2=O [GRISEOFULVIN]
Met

Now consider a different compound.
Q) Test whether the compound CC1=C(/C=C/C(C)=C/C=C/C(C)=C/CO)C(C)(C)CCC1 [RETINOL] records LIVER of 10 g or higher.
A) Not met

###

Organism: Rattus norvegicus
Test: Open TG-GATES - Regimen: Single
Type: toxicity, organism-based, Sprague-Dawley
Parameters: regimen Single, gender Male, age 6 weeks
Conditions: in vivo, po, 30 mg/kg, 6 h, tissue Blood, route gavage, dose level Middle
property-measured: Mono (%)
Give the value in % but do not write % after it.

Before answering, review these 3 worked examples.
CN(C)CCN(Cc1cccs1)c1ccccn1
2
CN(C)CCCN1c2ccccc2CCc2ccc(Cl)cc21 [CLOMIPRAMINE]
2.6
CN(C)CCCN1c2ccccc2CCc2ccccc21 [IMIPRAMINE]
3.2

With those in mind, consider the next molecule.
Record summary for CC1=C(/C=C/C(C)=C/C=C/C(C)=C/CO)C(C)(C)CCC1 [RETINOL] : reported Mono = 2.8

###

Species on record: Rattus norvegicus
Assay: Open TG-GATES - Regimen: Daily Repeat
Assay type: toxicity, organism-based, Sprague-Dawley
Parameters: regimen Daily Repeat, gender Male, age 6 weeks
Settings: in vivo, po, 0 mg/kg, […], tissue Blood, route gavage, dose level Control, time 28 day
property-measured: MCH

Record summary for COc1ccc2[nH]c([S+]([O-])Cc3ncc(C)c(OC)c3C)nc2c1 (stereo not drawn) : reported MCH = 19.4 pg

Record summary for CN1C(=O)CN=C(c2ccccc2)c2cc(Cl)ccc21 : reported MCH = 19 pg

Record summary for CC1=C(/C=C/C(C)=C/C=C/C(C)=C/CO)C(C)(C)CCC1 : reported MCH = 19.5 pg
